- TARGET_OF_ASSAY: indoleamine 2, 3-dioxygenase (IDO1) (Homo sapiens, UniProt P14902)
- Construct: human peripheral blood mononuclear cells (PBMC) (PB003F; host or cells: human PBMC stimulated with IFN-gamma and LPS
- Sequence (P14902 whole entry): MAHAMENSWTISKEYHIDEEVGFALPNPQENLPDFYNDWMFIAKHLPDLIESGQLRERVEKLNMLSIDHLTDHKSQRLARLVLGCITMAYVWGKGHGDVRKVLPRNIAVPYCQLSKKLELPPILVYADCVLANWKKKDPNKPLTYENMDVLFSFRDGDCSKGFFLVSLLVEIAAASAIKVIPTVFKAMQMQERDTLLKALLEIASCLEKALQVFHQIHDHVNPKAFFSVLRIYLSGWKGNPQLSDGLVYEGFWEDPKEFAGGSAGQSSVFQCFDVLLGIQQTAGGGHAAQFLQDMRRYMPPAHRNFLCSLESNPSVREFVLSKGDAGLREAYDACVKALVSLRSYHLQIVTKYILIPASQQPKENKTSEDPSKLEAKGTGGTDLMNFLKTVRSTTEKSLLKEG
- TEST_NAME: PBMC IDO1 assay (kynurenine detection via mass spectrometry)
- Format: cell-based
- CONDITION_DESCRIPTION: human PBMC stimulated with IFN-γ and LPS, 2 days, kynurenine by mass spectrometry; read-out: IDO1 PBMC pIC50 (converted)
Field: label. Allowed values: true (IC50 < 40 nM) or false (IC50 >= 40 nM).

>  <COMPOUND>
Cc1csc(C(=O)NC(CC2CCN(C(=O)OC(C)(C)C)CC2)c2ccccc2)c1 (centres unmarked)

>  <CLASS_LABEL>
false

$$$$
>  <COMPOUND>
CCc1ccc(C(=O)NC(CC2CCN(C(=O)OC(C)(C)C)CC2)C2CCCCC2)s1 (centres unmarked)

>  <CLASS_LABEL>
true

$$$$
>  <COMPOUND>
CC(C)(C)OC(=O)N1CCC(CC(NC(=O)c2ccc(F)cc2)C2CCCCC2)CC1 (centres unmarked)

>  <CLASS_LABEL>
false

$$$$
>  <COMPOUND>
CC(C)(C)OC(=O)N1CCC(CC(NC(=O)c2ccc(C3CC3)cc2)c2ccccc2)CC1 (centres unmarked)

>  <CLASS_LABEL>
true

$$$$
>  <COMPOUND>
C#CCOC(=O)N1CCC(CC(NC(=O)c2ccc(Cl)cc2)c2ccccc2)CC1 (centres unmarked)

>  <CLASS_LABEL>
true

$$$$
>  <COMPOUND>
CC(C)(C)OC(=O)N1CCC(CC(NC(=O)c2ccc(C3CC3)s2)c2ccccc2)CC1 (centres unmarked)

>  <CLASS_LABEL>
true

$$$$
>  <COMPOUND>
CC(C)(C)OC(=O)N1CCC(CC(NC(=O)c2cc(F)ccc2F)c2ccccc2)CC1 (centres unmarked)

>  <CLASS_LABEL>
false

$$$$

###

- TARGET_OF_ASSAY: indoleamine 2, 3-dioxygenase (IDO1) (Homo sapiens, UniProt P14902)
- Construct: human peripheral blood mononuclear cells (PBMC) (PB003F; host or cells: human PBMC stimulated with IFN-gamma and LPS
- TEST_NAME: PBMC IDO1 assay (kynurenine detection via mass spectrometry)
- Format: cell-based
- CONDITION_DESCRIPTION: human PBMC stimulated with IFN-γ and LPS, 2 days, kynurenine by mass spectrometry; read-out: IDO1 PBMC pIC50 (converted)
Field: label. Allowed values: MET (IC50 < 30 nM) or NOT MET (IC50 >= 30 nM).

>  <COMPOUND>
CC(C)(C)OC(=O)N1CCC(C[C@H](Nc2nc3ccc(Cl)cc3o2)C2CC2)CC1

>  <CLASS_LABEL>
NOT MET

$$$$
>  <COMPOUND>
COc1ccc(C(=O)NC(CC2CCN(C(=O)OC(C)(C)C)CC2)c2ccccc2)cc1F (centres unmarked)

>  <CLASS_LABEL>
NOT MET

$$$$
>  <COMPOUND>
CC(C)CC(CC1CCN(C(=O)OC(C)(C)C)CC1)NC(=O)c1ccc(Cl)s1 (centres unmarked)

>  <CLASS_LABEL>
MET

$$$$
>  <COMPOUND>
Cc1cc(C(=O)NC(CC2CCN(C(=O)OC(C)(C)C)CC2)c2ccccc2)ccc1F (centres unmarked)

>  <CLASS_LABEL>
NOT MET

$$$$
>  <COMPOUND>
C#CCOc1ccc(C(=O)NC(CC2CCN(C(=O)OC(C)(C)C)CC2)c2ccccc2)cc1F (centres unmarked)

>  <CLASS_LABEL>
NOT MET

$$$$
>  <COMPOUND>
CCOC(=O)N1CCC(CC(NC(=O)c2ccc(F)cc2)c2ccc(OC)nc2)CC1 (centres unmarked)

>  <CLASS_LABEL>
MET

$$$$
>  <COMPOUND>
CC(C)(C)OC(=O)N1CCC(CC(NC(=O)c2ccc(Br)cc2)C2CCCC2)CC1 (centres unmarked)

>  <CLASS_LABEL>
NOT MET

$$$$
>  <COMPOUND>
CCc1ccc(C(=O)N[C@@H](CC2CCN(C(=O)OC(C)(C)C)CC2)C2CC2)s1

>  <CLASS_LABEL>
MET

$$$$

# credit: patent US20210078988A1
